test: in vivo; details: male, Balb/c, mouse, po, 10 mg/kg, AUClast
property: AUC(0-t)

CC1(C)NC(=O)c2ccc(Nc3cc(NC(=O)C4CC4)ncn3)c(=O)n21 | 8750 ng·h/mL
CC1(C(F)(F)F)NC(=O)c2ccc(Nc3ccncn3)c(=O)n21 (stereo not drawn) | 255 ng·h/mL
CC1(C2CCCC2)NC(=O)c2ccc(Nc3ccncn3)c(=O)n21 (stereo not drawn) | 4830 ng·h/mL

* * *

experiment: in vivo; details: female, Balb/c, mouse, po, 10 mg/kg, Tmax
property: Tmax

CC1(C)NC(=O)c2ccc(Nc3cc(NC(=O)C4CC4)ncn3)c(=O)n21 [Cpd. No. 10] | 0.5 h
CC1(C2CCCC2)NC(=O)c2ccc(Nc3cc(NC(=O)C4CC4)ncn3)c(=O)n21 (centres unmarked) [Cpd. No. 23] | 1 h
CC1(C(F)(F)F)NC(=O)c2c(Cl)cc(Nc3ccncn3)c(=O)n21 (centres unmarked) [Cpd. No. 35] | 2 h
CC1(C)NC(=O)c2c(Cl)cc(Nc3cc(NC(=O)C4CC4)ncn3)c(=O)n21 [Cpd. No. 43] | 2 h
O=C1NC2(CCCCC2)n2c1c(Cl)cc(Nc1cc(NC(=O)C3CC3)ncn1)c2=O [Cpd. No. 45] | 2 h
Cl.O=C1NC2(CCCNC2)n2c1c(Cl)cc(Nc1cc(NC(=O)C3CC3)ncn1)c2=O (centres unmarked) [Cpd. No. 60] | 1 h
Cl.O=C1NC2(CCCCC2)n2c1c(Cl)cc(Nc1ccncn1)c2=O [Cpd. No. 109] | 0.3 h
Cc1cc(Nc2cc(N)ncn2)c(=O)n2c1C(=O)NC2(C)C.Cl [Cpd. No. 102] | 0.3 h
